All values here come from patent US20050049242A1.

- Tested on: MT-2 cells
- Experimental Conditions: 48 hours
Hi, to clarify the labels: Criterion met covers LD5 (5% lethal dose, concentration at which cell growth is inhibited by 5%) from 50 µM upward, Criterion not met covers anything below 50 µM.

Example cases with answers are listed next.
• O=C(Cc1ccc(O)c(O)c1)O[C@@H](C(=O)O)[C@@H](OC(=O)Cc1ccc(O)c(O)c1)C(=O)O = Criterion met
• O=C(O)C(=Cc1ccc(O)c(O)c1)C(=Cc1ccc(O)c(O)c1)C(=O)O = Criterion not met
• O=C(C=Cc1ccc(O)c(O)c1)NCCCCC(NC(=O)C=Cc1ccc(O)c(O)c1)C(=O)O (stereo not drawn) = Criterion not met

Hi, just wondering whether O=C(O[C@@H](C(=O)O)[C@@H](OC(=O)c1cc(O)c(O)c(O)c1)C(=O)O)c1cc(O)c(O)c(O)c1 shows LD5 (5% lethal dose, concentration at which cell growth is inhibited by 5%) of 50 µM or higher.
Criterion not met

Hi, just wondering whether O=C(/C=C/c1ccc(O)c(O)c1)OC[C@H](OC(=O)/C=C/c1ccc(O)c(O)c1)C(=O)O shows LD5 (5% lethal dose, concentration at which cell growth is inhibited by 5%) of 50 µM or higher.
Criterion met

Hi, just wondering whether O=C(C=Cc1ccc(O)c(O)c1)NCC(OC(=O)C=Cc1ccc(O)c(O)c1)C(=O)O (stereo not drawn) shows LD5 (5% lethal dose, concentration at which cell growth is inhibited by 5%) of 50 µM or higher.
Criterion met

Hi, just wondering whether O=C(C=Cc1ccc(O)c(O)c1)Nc1ccc(C(=O)O)cc1NC(=O)C=Cc1ccc(O)c(O)c1 shows LD5 (5% lethal dose, concentration at which cell growth is inhibited by 5%) of 50 µM or higher.
Criterion not met

Hi, just wondering whether O=C(O[C@@H](C(=O)O)[C@@H](OC(=O)c1ccc(O)c(O)c1)C(=O)O)c1ccc(O)c(O)c1 shows LD5 (5% lethal dose, concentration at which cell growth is inhibited by 5%) of 50 µM or higher.
Criterion met
